Reference source: patent US20250197425A1

# ASSAY_TEXT: Aqueous thermodynamic solubility, shake-flask
# Assay type: physicochemical
# RUN_CONDITIONS: aqueous phosphate buffer, 25 °C, pH 7.4, aqueous buffer, thermodynamic from solid, phosphate buffer 0.1 M, pH 7.4, 24 hours
MEASURE: solubility at 24 h (µM)

(I) CCNS(=O)(=O)N1CC[C@H](Nc2nc(N[C@@H](CO)C3CC3)nc3c2ncn3C(F)F)C1
(II) CCNS(=O)(=O)N1CC[C@H](Nc2cc(N[C@@H](CC)[C@@H](C)O)nc3c2ncn3CC)C1
INPUT: Which entry shows the lesser value of solubility at 24 h here, I or II ? Select an item and report its label.
OUTPUT: II
